Molecular target: Glucocorticoid receptor (Homo sapiens)
Test: GR-GFP Redistribution (AID 450); note: potency is the fitted concentration of half-maximal effect
Settings: U2OS GR-GFP nuclear translocation, laser cytometry, 2 h
Active and inactive are the calls of the source.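 Rule for the calls: active = compounds whose dose series gives a full or clear partial fitted curve of increased nuclear translocation; inconclusive = weak partial curve or effect only at the top dose; inactive = no dose-dependent translocation response.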
MEASURED ENDPOINT: Potency

Worked cases, Potency given:
- SMILES CODE: "Cc1cccc(CNc2ccnc(-c3ccc(C(=O)N(C)C)cc3)n2)c1"
  Potency: "> 46 µM (inactive)"
- SMILES CODE: "CN(C)c1ncc2nc(-c3ccc(Cl)cc3)c(=O)n(CCC#N)c2n1"
  Potency: "> 9.22 µM (inactive)"
- SMILES CODE: "CC(=O)NCCNc1nc(-c2c(C)noc2C)nc2ccccc12"
  Potency: "> 46 µM (inactive)"
- SMILES CODE: "CCNc1ncc2nc(-c3cc(F)cc(F)c3)c(=O)n(-c3ccccc3)c2n1"
  Potency: "> 9.22 µM (inactive)"
- SMILES CODE: "COc1ncc2nc(-c3cccs3)c(=O)n(Cc3cccs3)c2n1"
  Potency: "> 9.22 µM (inactive)"

Moving on to another compound below.
Input: Quickly give me recorded Potency for `COc1cccc(-c2cncnc2NCc2cccs2)c1`
Output: > 46 µM (inactive)
